Data origin, for the record: patent US12084420B2

Tested target: hKIF18A (1-374) (Homo sapiens (Human))
Sequence (Q8NI77 whole entry, looked up): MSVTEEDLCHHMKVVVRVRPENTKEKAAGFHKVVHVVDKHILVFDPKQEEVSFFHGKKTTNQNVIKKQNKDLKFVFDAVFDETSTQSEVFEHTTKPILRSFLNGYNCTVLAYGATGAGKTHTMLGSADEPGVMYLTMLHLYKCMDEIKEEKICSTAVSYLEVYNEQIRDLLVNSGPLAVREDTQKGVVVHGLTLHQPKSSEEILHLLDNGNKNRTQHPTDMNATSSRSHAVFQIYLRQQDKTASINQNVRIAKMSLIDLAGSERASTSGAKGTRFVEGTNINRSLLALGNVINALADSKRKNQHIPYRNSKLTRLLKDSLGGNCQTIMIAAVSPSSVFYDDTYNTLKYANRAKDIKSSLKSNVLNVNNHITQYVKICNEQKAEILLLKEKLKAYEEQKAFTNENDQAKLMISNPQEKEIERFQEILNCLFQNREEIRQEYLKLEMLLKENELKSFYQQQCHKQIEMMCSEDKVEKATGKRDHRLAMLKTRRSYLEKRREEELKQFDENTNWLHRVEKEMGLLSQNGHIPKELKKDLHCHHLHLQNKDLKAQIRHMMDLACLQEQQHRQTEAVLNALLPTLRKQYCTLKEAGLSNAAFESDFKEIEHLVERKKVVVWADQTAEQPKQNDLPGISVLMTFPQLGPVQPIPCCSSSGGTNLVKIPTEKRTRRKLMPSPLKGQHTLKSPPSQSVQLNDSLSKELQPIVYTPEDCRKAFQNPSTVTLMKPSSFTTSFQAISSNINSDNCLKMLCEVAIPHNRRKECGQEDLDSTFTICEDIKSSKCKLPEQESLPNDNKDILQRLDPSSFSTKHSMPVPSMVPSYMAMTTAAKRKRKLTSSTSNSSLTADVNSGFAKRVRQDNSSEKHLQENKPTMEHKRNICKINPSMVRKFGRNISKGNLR
Sequence (Q2XVP4 whole entry partner, looked up): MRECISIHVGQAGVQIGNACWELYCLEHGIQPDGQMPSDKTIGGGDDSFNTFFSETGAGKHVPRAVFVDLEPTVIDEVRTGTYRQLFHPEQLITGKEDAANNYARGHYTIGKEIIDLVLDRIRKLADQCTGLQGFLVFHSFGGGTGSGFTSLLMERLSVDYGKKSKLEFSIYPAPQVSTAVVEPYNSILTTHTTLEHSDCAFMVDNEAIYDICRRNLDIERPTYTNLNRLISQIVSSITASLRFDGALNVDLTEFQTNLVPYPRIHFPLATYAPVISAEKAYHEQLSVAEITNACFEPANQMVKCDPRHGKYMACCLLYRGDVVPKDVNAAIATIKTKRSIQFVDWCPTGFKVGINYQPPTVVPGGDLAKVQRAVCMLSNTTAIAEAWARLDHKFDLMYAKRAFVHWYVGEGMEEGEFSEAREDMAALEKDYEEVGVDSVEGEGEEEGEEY
Sequence (P02554 whole entry partner, looked up): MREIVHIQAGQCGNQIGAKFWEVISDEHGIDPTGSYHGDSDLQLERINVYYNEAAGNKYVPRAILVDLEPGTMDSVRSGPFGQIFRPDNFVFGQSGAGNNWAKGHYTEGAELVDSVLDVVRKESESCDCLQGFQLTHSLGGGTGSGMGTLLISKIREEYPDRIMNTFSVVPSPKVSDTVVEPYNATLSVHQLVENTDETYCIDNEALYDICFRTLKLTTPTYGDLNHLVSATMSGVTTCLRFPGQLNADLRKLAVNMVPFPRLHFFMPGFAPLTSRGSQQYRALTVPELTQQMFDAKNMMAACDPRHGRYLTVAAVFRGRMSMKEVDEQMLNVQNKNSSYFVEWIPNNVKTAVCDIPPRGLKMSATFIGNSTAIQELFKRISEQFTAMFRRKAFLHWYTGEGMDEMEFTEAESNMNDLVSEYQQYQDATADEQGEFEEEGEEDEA
Test name: Inhibition of KIF18A microtubule-dependent ATPase activity (ADP-Glo)
Experimental context: KIF18A microtubule-dependent ATPase activity, biochemical assay
Measured attribute: IC50 (nM)
Respond with the bare value in nM.

The examples below pair each entry with its known result.
>  <Compound>
CCS(=O)(=O)Nc1ccc2c(c1)[C@]1(CC[C@@H](C(F)F)CC1)CN2C(=O)c1cccc(S(=O)(=O)NC(C)(C)C)c1 [Compound 333a]

>  <Unit spec>
nM

>  <Measured>
18

$$$$
>  <Compound>
CC(C)(C)CC(O)c1cccc(C(=O)N2CC3(CCC4(CC4)CC3)c3cc(NS(C)(=O)=O)ccc32)c1 (stereo not drawn) [Compound 357]

>  <Unit spec>
nM

>  <Measured>
11

$$$$
>  <Compound>
CS(=O)(=O)Nc1ccc2c(c1)C1(CCC3(CC3)CC1)CN2C(=O)c1cccc(C(C#N)C2CCCC2)c1 (stereo not drawn) [Compound 339]

>  <Unit spec>
nM

>  <Measured>
24

$$$$
>  <Compound>
CS(=O)(=O)Nc1ccc2c(c1)C1(CCC3(CC3)CC1)CN2C(=O)c1cccc(S(=O)(=O)N2CC3C(C2)C3(F)F)c1 (stereo not drawn) [Compound 237]

>  <Unit spec>
nM

>  <Measured>
11

$$$$
>  <Compound>
CC1(NS(=O)(=O)c2cccc(C(=O)N3CC4(CCC5(CC5)CC4)c4cc(NS(C)(=O)=O)ccc43)c2)CC(F)(F)C1 [Compound 224]

>  <Unit spec>
nM

>  <Measured>
23

$$$$

Let's switch to this compound now.
Give hKIF18A (1-374) (Homo sapiens (Human)) IC50 for CS(=O)(=O)Nc1ccc2c(c1)C1(CCC3(CC3)CC1)CN2C(=O)c1cccc(C(O)CN2CCC(F)(F)CC2)c1 (stereo not drawn) [Compound 315]
53
